Origin of values: ChEMBL document CHEMBL1149399

- STUDY_TARGET: Dihydrofolate reductase (Homo sapiens)
- Sequence (P00374 whole entry): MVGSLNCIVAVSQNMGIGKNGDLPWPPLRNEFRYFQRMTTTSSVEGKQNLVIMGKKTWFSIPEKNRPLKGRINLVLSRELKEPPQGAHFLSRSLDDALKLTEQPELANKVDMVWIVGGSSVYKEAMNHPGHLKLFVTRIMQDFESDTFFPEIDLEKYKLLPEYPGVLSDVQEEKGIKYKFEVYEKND
EXPERIMENTAL_READOUT: pIC50
Give bare numbers, as −log10 of the molar value.

What does the data say about its pIC50? Entry: `CCc1[nH]c2nc(N)nc(O)c2c1Sc1ccc(C(=O)N[C@@H](CCC(=O)O)C(=O)O)cc1`
6.38
